# protocol: qHTS assay to test for compound auto fluorescence at 535 nm (green) in HEK293 cells (AID 720680); note: % is set by controls: 0 for no effect and ±100 for the full control effect
# experimentalContext: green autofluorescence 485/535 nm; series mostly up to 91.3 µM
Activity calls are given as the source filed them. Calls come from the whole dose curve; as a rule, active = well fitted curve in the direction sought with a large enough effect in the repeat runs; inconclusive = weak or mixed curves; inactive = flat fitted curve, though single readings scatter.

| molecule | fluorescence, % of fluorescein |
| --- | --- |
| CCOc1ccccc1O[C@H](c1ccccc1)[C@H]1CNCCO1 | inactive |
| c1ccc2sc(SN(C3CCCCC3)C3CCCCC3)nc2c1 | inactive |
| C[C@@H]1CN(CCCn2c3ccccc3c3ccccc32)C[C@H](C)N1 | inactive |
| O=C(O)CCc1nc(-c2ccccc2)c(-c2ccccc2)o1 | inactive |
| C=C(C)[C@@H]1CCC2=CCC[C@@H](C)[C@]2(C)C1 | inactive |
| c1ccc(C[n+]2cccc3ccccc32)cc1 | inactive |
| CCOC(=O)/C=C/C(=O)OCC | inactive |
| CC(=O)Nc1ccc(C)cc1C | inactive |
| CCC(=O)OC | inactive |
| CCC(=O)C1CC(C(C)C)CC=C1C (configuration not stated) | inactive |
| C=C(C)CCCC(C)CCO (configuration not stated) | inactive |
| O=C1c2ccccc2C(=O)C1c1nc2ccccc2c(Br)c1O | inactive |
| O=C=Nc1ccc(Cl)c(Cl)c1 | inactive |
| CCCC(=O)C(=O)O | inactive |
| O=C(/C=C/c1ccccc1)OCCc1ccccc1 | inactive |
| Cc1cc(O)ccc1O | inactive |
| Cc1cccc(N(C)C(=S)Oc2ccc3c(c2)CCC3)c1 | inactive |
| COC(=O)CCS | inactive |
| O=C1Cc2ccccc2N1c1c(Cl)cccc1Cl | inactive |
| O=c1[nH]ncc2ccccc12 | inactive |
| Cc1cscn1 | inactive |
| C=C1C[C@@]23CC[C@H]4[C@@](C)(CCC[C@@]4(C)C(=O)O[C@@H]4O[C@H](CO)[C@@H](O)[C@H](O)[C@H]4O)[C@@H]2CC[C@]1(O[C@@H]1O[C@H](CO)[C@@H](O)[C@H](O[C@@H]2O[C@H](CO)[C@@H](O)[C@H](O)[C@H]2O)[C@H]1O[C@@H]1O[C@H](CO)[C@@H](O)[C@H](O)[C@H]1O)C3 | inactive |
| O=C1C(=O)c2ccccc2C(O)=C1C1CCC(c2ccc(Cl)cc2)CC1 (configuration not stated) | -0.014% [at 18.6 µM] (inactive) |
| Cc1ccccc1S | inactive |
| C=Cc1ccc(S(=O)(=O)O)cc1 | inactive |
| Cc1[nH]cnc1CN1CCc2c(c3ccccc3n2C)C1=O | inactive |
| CN(C(=O)CN(CCO)CC(=O)N(C)C(C)(C)Cc1ccccc1)C(C)(C)Cc1ccccc1 | 0.0843% [at 18.6 µM] (inactive) |
| Nc1nnc(-c2ccc([N+](=O)[O-])o2)o1 | inactive |
| O=C(CCCN1CC=C(n2c(=O)[nH]c3ccccc32)CC1)c1ccc(F)cc1 | inactive |
| C[C@@]12CCC[C@H]1[C@@H]1CC[C@H]3C[C@@H](O)CC[C@]3(C)[C@H]1CC2 | inactive |
| C=COCC(C)C | inactive |
| CN1CCCC(n2nc(Cc3ccc(Cl)cc3)c3ccccc3c2=O)CC1 (configuration not stated) | inactive |
| N#[N+]c1ccc2c(S(=O)(=O)[O-])cccc2c1O | inactive |
| CC(C)=CCC/C(C)=C/CC/C(C)=C/CCC(=O)OC/C=C(\C)CCC=C(C)C | inactive |
| CC1(C)S[C@@H]2[C@H](NC(=O)C(c3ccccc3)S(=O)(=O)O)C(=O)N2[C@H]1C(=O)O (some centres not stated) | inactive |
| CN1C[C@H](C(=O)N[C@]2(C)O[C@@]3(O)[C@@H]4CCCN4C(=O)[C@H](Cc4ccccc4)N3C2=O)C[C@@H]2c3cccc4[nH]cc(c34)C[C@H]21 | inactive |
| CCCCC(CC)COP(=O)(O)O (configuration not stated) | inactive |
| COc1cc(N)c(Cl)cc1C(=O)NC1CCN(CCCOc2ccc(F)cc2)CC1OC (configuration not stated) | 0.0057% [at 18.6 µM] (inactive) |
| CCC(C)COC(C)=O (configuration not stated) | inactive |
| CC1=Nc2ccc3ccccc3c2C1(C)C | inactive |
| CCOc1ccc(Cc2nccc3cc(OCC)c(OCC)cc23)cc1OCC | -0.066% [at 18.6 µM] (inactive) |
| O=C(/C=C/c1ccc(O)c(O)c1)O[C@@H]1C[C@@](OC(=O)/C=C/c2ccc(O)c(O)c2)(C(=O)O)C[C@@H](O)[C@@H]1O | inactive |
| CCOC(=O)c1ccc(I)cc1 | inactive |
| Brc1cc2ccccc2c2ccccc12 | inactive |
| CC(CN(C)C)C(C)(O)Cc1ccc(Cl)cc1 (configuration not stated) | inactive |
| C[C@H]1c2cccc(O)c2C(O)=C2C(=O)[C@]3(O)C(O)=C(C(N)=O)C(=O)[C@@H](N(C)C)[C@@H]3[C@@H](O)[C@@H]21 | inactive |
| C=C(C)C(=O)OCCCCCCCCCCCCC | inactive |
